Values compiled from the NIST ThermoML archive (doi:10.1021/je800356x).

assay: molar heat capacity at constant pressure; details: 350.15 K; 101.33 kPa; Liquid; Small sample (50 mg) DSC
Outcome: Y for molar heat capacity at constant pressure of at least 300 J/K/mol; N for anything lower.

OCCCCO [1,4-butanediol] : N
OCCCCCCCCO [1,8-octanediol] : Y
OCCCCCCO [1,6-hexanediol] : Y
OCCO [1,2-ethanediol] : N
OCCCCCCCO [1,7-heptanediol] : Y
OCCCO [propan-1,3-diol] : N

QUERY: Is molar heat capacity at constant pressure at least 300 J/K/mol? Consider OCCCCCCCCCO [1,9-nonanediol]
RESULT: Y

QUERY: Is molar heat capacity at constant pressure at least 300 J/K/mol? Consider OCCCCCO [1,5-pentanediol]
RESULT: N
